The reported measurements were obtained from patent US20160039767A1.

molecular target: PRMT1 (Homo sapiens, UniProt Q99873); construct: GST-tagged PRMT1; made in house; host or cells: High Five insect cells (baculovirus, pFastBacI); test: PRMT1 Biochemical Assay (3H-SAM Flashplate, histone H4 peptide substrate); details: Biochemical IC50 (Numerical, μM) PRMT1, single experiment or average of multiple experiments, Table 2a
Sequence (Q99873 with tags, fused parts or gaps): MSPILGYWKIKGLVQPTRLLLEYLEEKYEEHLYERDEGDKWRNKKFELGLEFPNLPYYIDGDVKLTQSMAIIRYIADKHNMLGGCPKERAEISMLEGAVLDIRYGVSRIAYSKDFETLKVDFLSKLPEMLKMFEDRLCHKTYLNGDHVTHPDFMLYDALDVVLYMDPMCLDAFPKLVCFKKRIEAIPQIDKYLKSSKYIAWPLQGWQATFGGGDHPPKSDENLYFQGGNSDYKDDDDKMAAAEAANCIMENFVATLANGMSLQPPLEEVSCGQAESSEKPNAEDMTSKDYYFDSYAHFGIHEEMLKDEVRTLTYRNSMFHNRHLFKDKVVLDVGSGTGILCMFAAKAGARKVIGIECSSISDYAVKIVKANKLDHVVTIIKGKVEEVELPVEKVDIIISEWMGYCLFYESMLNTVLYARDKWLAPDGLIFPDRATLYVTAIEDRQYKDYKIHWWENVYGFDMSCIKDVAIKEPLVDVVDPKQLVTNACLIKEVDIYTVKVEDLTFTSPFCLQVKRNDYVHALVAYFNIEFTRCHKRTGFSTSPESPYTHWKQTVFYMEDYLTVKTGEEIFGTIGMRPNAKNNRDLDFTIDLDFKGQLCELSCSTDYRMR
attribute-measured: IC50 (µM)
Use µM as the unit, but write only the number.

Example cases with answers are listed next.
molecule: CNCCN(C)Cc1c[nH]nc1-c1cc(Oc2cccnc2)cc(C(F)(F)F)c1 [Compound 51]
unit-descriptor: µM
IC50: 0.0513

molecule: CN(CCN)Cc1c[nH]nc1-c1ccc(Cl)c(C(F)(F)F)c1 [Compound 3]
unit-descriptor: µM
IC50: 0.0232

molecule: COCCOc1cc(-c2n[nH]cc2CN(C)CCN)cc(C(F)(F)F)c1Cl [Compound 56]
unit-descriptor: µM
IC50: 0.194

molecule: CNCCN(C)Cc1c[nH]nc1-c1cc(OCCCC(C)=O)cc(C(F)(F)F)c1 [Compound 49]
unit-descriptor: µM
IC50: 0.0366

molecule: CN(CCN)Cc1c[nH]nc1-c1ccc(Oc2ccccc2)c(C(F)(F)F)c1 [Compound 23]
unit-descriptor: µM
IC50: 0.00301

Suppose we examine the molecule CC(C)Oc1cc(-c2n[nH]cc2CN(C)CCN)cc(C(F)(F)F)c1 [Compound 6] ; what IC50 value has been reported?
0.0687
